Tested on: Enterococcus faecium
Assay: Antibacterial activity evaluated as minimum inhibitory concentration against 568 Enterococcus faecium (GSE)
Assay type: functional
experimental-endpoint: MIC
Lab note: record the figure alone, no unit after it.

CCCCCCCCCCNC(=O)[C@H]1NC(=O)[C@H]2NC(=O)[C@H](NC(=O)[C@@H]3NC(=O)[C@H](CC(N)=O)NC(=O)[C@H](N)[C@H](O)c4ccc(c(Cl)c4)Oc4cc3cc(c4O[C@@H]3O[C@@H](CO)[C@H](O)[C@@H](O)[C@@H]3O[C@H]3C[C@@](C)(N)[C@@H](O)[C@@H](C)O3)Oc3cccc(c3)[C@H]2O[C@H]2C[C@@](C)(N)[C@@H](O)[C@@H](C)O2)c2ccc(O)c(c2)-c2c(O)cc(O)cc21 2
C[C@H]1O[C@@H](O[C@@H]2[C@H](Oc3c4cc5cc3Oc3ccc(cc3Cl)[C@@H](O)[C@@H](N)C(=O)N[C@@H](CC(N)=O)C(=O)N[C@H]5C(=O)N[C@H]3C(=O)N[C@H](C(=O)N[C@H](C(=O)NCc5ccc(-c6ccc(Cl)cc6)cc5)c5cc(O)cc(O)c5-c5cc3ccc5O)[C@H](O[C@H]3C[C@@](C)(N)[C@@H](O)[C@@H](C)O3)c3cccc(c3)O4)O[C@@H](CO)[C@H](O)[C@H]2O)C[C@@](C)(N)[C@H]1O 4
CCCCCCCCCCN[C@]1(C)C[C@H](O[C@@H]2[C@H](Oc3c4cc5cc3Oc3ccc(cc3Cl)[C@@H](O)[C@@H](NC(=O)[C@@H](CC(C)C)NC)C(=O)N[C@@H](CC(N)=O)C(=O)N[C@H]5C(=O)N[C@H]3C(=O)N[C@H](C(=O)N[C@H](C(=O)O)c5cc(O)cc(O)c5-c5cc3ccc5O)[C@H](O[C@H]3C[C@@](C)(N)[C@@H](O)[C@@H](C)O3)c3cccc(c3)O4)O[C@@H](CO)[C@H](O)[C@H]2O)O[C@H](C)[C@@H]1O 0.5
CCCCCCCCCCNC(=O)[C@H]1NC(=O)[C@H]2NC(=O)[C@H](NC(=O)[C@@H]3NC(=O)[C@H](CC(N)=O)NC(=O)[C@H](NC(=O)[C@@H](CC(C)C)NC)[C@H](O)c4ccc(c(Cl)c4)Oc4cc3cc(c4O[C@@H]3O[C@@H](CO)[C@H](O)[C@@H](O)[C@@H]3O[C@H]3C[C@@](C)(N)[C@@H](O)[C@@H](C)O3)Oc3cccc(c3)[C@H]2O[C@H]2C[C@@](C)(N)[C@@H](O)[C@@H](C)O2)c2ccc(O)c(c2)-c2c(O)cc(O)cc21 0.5

Shift focus to the following entry.
[ask] Bench note: what MIC did CN[C@H](CC(C)C)C(=O)N[C@H]1C(=O)N[C@@H](CC(N)=O)C(=O)N[C@H]2C(=O)N[C@H]3C(=O)N[C@H](C(=O)N[C@H](C(=O)NCc4ccc(-c5ccc(Cl)cc5)cc4)c4cc(O)cc(O)c4-c4cc3ccc4O)[C@H](O[C@H]3C[C@@](C)(N)[C@@H](O)[C@@H](C)O3)c3cccc(c3)Oc3cc2cc(c3O[C@@H]2O[C@@H](CO)[C@H](O)[C@@H](O)[C@@H]2O[C@H]2C[C@@](C)(N)[C@@H](O)[C@@H](C)O2)Oc2ccc(cc2Cl)[C@H]1O show?
[reply] 1
